Data origin: PubChem BioAssay (NCATS)

- RUN_DESCRIPTION: Primary qHTS for inhibitors of SARS-S pseudo-typed particle cell entry (AID 1479145); further: nearly all actives have a fitted effect of over 45% in size
- MEASUREMENT_PARAMETERS: SARS-S pseudotyped particle cell entry, luciferase reporter; series mostly up to 57.1 µM
Records with an inconclusive call do not appear. The source made the active and inactive calls. The call rests on the fitted dose curve.
# output must be one of active, inactive

# count of solved cases: 3
>>> group("Cc1cc(=O)c(C(=O)N[C@@H](C(=O)N[C@@H]2C(=O)N3C(C(=O)O)=C(CSc4nnnn4C)CS[C@H]23)c2ccc(O)cc2)c[nH]1")
"inactive"
>>> group("CN(C(=O)CO)c1c(I)c(C(=O)NCC(O)CO)c(I)c(C(=O)NCC(O)CO)c1I (centres undefined)")
"inactive"
>>> group("O=C([O-])C[O-].[Pt+2]")
"inactive"

Q) Test call for this molecule, please: `Cc1cc(/C=C/C#N)cc(C)c1Nc1ccnc(Nc2ccc(C#N)cc2)n1`
A) active

====

- RUN_DESCRIPTION: qHTS assay for small molecule disruptors of the mitochondrial membrane potential - 5 hr assay (AID 651755); further: nearly all actives have a fitted effect of over 40% in size
- MEASUREMENT_PARAMETERS: JC-1-type ratio dye; series mostly up to 92.2 µM
Results filed as inconclusive are left out. Calls of active or inactive are those of the source. Calls follow the shape of the full dose curve.
Use one of these outcomes when replying: yes (1) = active, no (0) = inactive

>>> group("Nc1ccccc1Cl")
"no (0)"
>>> group("BrCCBr")
"no (0)"
>>> group("CCC[CH2][Sn]([Cl])([Cl])[Cl]")
"no (0)"
>>> group("Oc1ccc(Cl)cc1Cl")
"no (0)"
>>> group("CC(C)(c1ccccc1)c1ccc(O)cc1")
"yes (1)"
>>> group("O=C(Cl)/C=C/C(=O)Cl")
"no (0)"

Q) Hi, do you know how `c1ccc2c(c1)CCCC2` came out in this test?
A) no (0)

====

- STUDY_SYSTEM: DNA dC->dU-editing enzyme APOBEC-3G (Homo sapiens) (UniProt Q9HC16)
- Sequence (Q9HC16 whole entry, looked up): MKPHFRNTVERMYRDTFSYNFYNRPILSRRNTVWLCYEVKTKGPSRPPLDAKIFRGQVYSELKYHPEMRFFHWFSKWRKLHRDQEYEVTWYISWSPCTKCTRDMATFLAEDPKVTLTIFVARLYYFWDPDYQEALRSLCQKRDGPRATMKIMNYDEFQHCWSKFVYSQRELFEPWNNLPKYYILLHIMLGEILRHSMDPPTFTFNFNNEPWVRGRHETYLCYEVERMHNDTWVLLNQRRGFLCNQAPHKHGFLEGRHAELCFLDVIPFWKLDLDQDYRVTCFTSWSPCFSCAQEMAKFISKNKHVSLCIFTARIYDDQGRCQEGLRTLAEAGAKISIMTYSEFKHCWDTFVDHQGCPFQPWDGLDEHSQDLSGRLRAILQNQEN
- RUN_DESCRIPTION: qHTS for inhibitors of Vif-A3G interactions: Validation (AID 588379); further: 0% is about no effect
- MEASUREMENT_PARAMETERS: Vif-A3G protein interaction assay; series mostly up to 46.1 µM
Calls of active or inactive are those of the source. Calls come from the whole dose curve; as a rule, active = well fitted inhibition curve with a large enough effect; inconclusive = small, poorly fitted or top-dose-only effect; inactive = flat fitted curve, though single readings scatter.
PARAMETER_MEASURED: outcome

Use the examples below as a reference point.
>>> recorded_measurement("C[C@H]1C(=O)O[C@H]2CCN3CC=C(COC(=O)[C@](C)(O)[C@@]1(C)O)C23 (stereo not given in full)")
"inactive"
>>> recorded_measurement("C[C@]1(C(=O)O)CCC[C@]2(C)c3cc(O)ccc3CC[C@@H]12")
"inactive"
>>> recorded_measurement("C=C[C@H]1CN2CCC1C[C@@H]2C(O)c1ccnc2ccccc12 (stereo not given in full)")
"inactive"
>>> recorded_measurement("C[C@]12CC[C@H](O)CC1=CCC1C2CC[C@]2(C)C(=O)CC[C@@H]12 (stereo not given in full)")
"inactive"

Note: attention shifts to another entry.
Q) Dear colleague, I am looking for the recorded outcome of the following compound: O=C1CC2OCC=C3CN4CC[C@]56c7ccccc7N1[C@H]5[C@H]2C3C[C@H]46 (stereo not given in full)
A) inactive

====

- STUDY_SYSTEM: Cytochrome P450 3A4 (Homo sapiens) (UniProt P08684)
- Sequence (P08684 whole entry, looked up): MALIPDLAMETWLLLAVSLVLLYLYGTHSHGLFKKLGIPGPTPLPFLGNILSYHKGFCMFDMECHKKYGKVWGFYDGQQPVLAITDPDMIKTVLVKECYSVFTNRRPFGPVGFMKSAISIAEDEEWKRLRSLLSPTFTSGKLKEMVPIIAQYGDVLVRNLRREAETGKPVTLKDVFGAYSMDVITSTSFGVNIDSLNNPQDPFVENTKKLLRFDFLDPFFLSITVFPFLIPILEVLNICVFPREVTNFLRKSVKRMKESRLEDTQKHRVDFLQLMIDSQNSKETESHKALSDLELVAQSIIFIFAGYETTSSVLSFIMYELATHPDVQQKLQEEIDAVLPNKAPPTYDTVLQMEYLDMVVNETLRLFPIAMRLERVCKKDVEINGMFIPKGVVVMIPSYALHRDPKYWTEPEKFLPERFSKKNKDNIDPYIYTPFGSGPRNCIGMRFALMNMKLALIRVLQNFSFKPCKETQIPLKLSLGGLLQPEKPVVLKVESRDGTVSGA
- RUN_DESCRIPTION: qHTS Assay for Inhibitors and Substrates of Cytochrome P450 3A4 (AID 884); further: nearly all actives have a fitted effect of over 50% in size
- MEASUREMENT_PARAMETERS: recombinant CYP3A4, Luciferin-PPXE luminescence; series mostly up to 57.1 µM
- Procedure: NIH Molecular Libraries Screening Centers Network [MLSCN] NIH Chemical Genomics Center [NCGC] The P450 gene superfamily is involved in the metabolism and clearance of xenobiotics. […] The luciferin is then measured by luminescence after the addition of a luciferase detection reagent. […] Inhibitors and some substrates limit the production of luciferin, and decrease measured luminescence. […]
Results filed as inconclusive are left out. The source made the active and inactive calls. Calls follow the shape of the dose curve; as a rule, active = well fitted inhibition curve with a large enough effect; inconclusive = small, poorly fitted or top-dose-only effect; inactive = no such curve, though single readings can be large or run the other way.
Your reply should match one of these outcome classes. True (active), False (inactive)

>>> group("CC[C@H]1C2CC3[C@@H]4N(C)c5ccccc5[C@]45C[C@@H](C2[C@H]5O)N3[C@@H]1O (some centres undefined)")
"False"
>>> group("CCCCSP(=O)(SCCCC)SCCCC")
"False"
>>> group("CC(C)C[C@H]1C(=O)N2CCC[C@@H]2[C@@]2(O)O[C@](NC(=O)[C@@H]3C=C4c5cccc6[nH]cc(c56)C[C@@H]4N(C)C3)(C(C)C)C(=O)N12")
"True"
>>> group("COc1cc(OC)c2c(c1)OC(c1ccc(OC)c(OC)c1)C(O)C2 (centres undefined)")
"False"
>>> group("C[C@@]12CC(c3ccoc3)OC(=O)C1CC[C@@]1(C)C2C2C=C[C@@]1(O)C(=O)O2 (some centres undefined)")
"False"
>>> group("CN1CC[C@@]2(C)c3cc(O)ccc3N(C)[C@@H]12")
"False"
>>> group("CC[C@H]1C(=O)OC[C@H]1Cc1cncn1C")
"True"
>>> group("CC1O[C@@H](OC2CC[C@@]3(C=O)C4CC[C@]5(C)C(C6=CC(=O)OC6)CC[C@@]5(O)C4CC[C@]3(O)C2)C(O)C(O)C1O (some centres undefined)")
"False"

Please look at the following compound next.
Q) Per the assay record, what outcome was assigned to `CNC(=O)Oc1ccccc1OC(C)C` ?
A) False
